These measurements were taken from PubChem BioAssay AID1159580.

# PROTOCOL: chemical genetic growth profiling, strain panel (AID 1159580);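 further: tested at 20 µM; growth read once vehicle control cultures reached saturation at 30 °C; 1 = growth at the plate median or of vehicle wells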
# CONDITION CONTEXT: S. cerevisiae deletion strains, growth OD, locus YOR144C, strain elg1
Screen size: about 5,500 compounds; about 2,000 (36%) were called active. About 18% were inconclusive and are not listed. No stated cut-off is given here; in the data, active means normalized growth mostly below about 0.91 (no sharp cut-off); inconclusive means no clear call, values can overlap the other calls; inactive means mostly above about 0.92. Some of the results follow.
Select the correct class. Options are label 1 (active), label 0 (inactive) and nothing else.

(Q) # outcome recorded in this test, key = CCC(CCC(C)[C@H]1CCC2C3CC=C4C[C@@H](O)CC[C@]4(C)C3CC[C@@]21C)C(C)C (some centres undefined)
(A) label 0

(Q) Check the results log: what was the call for CC(=O)O[C@H]1C[C@@H](O)C(C)(C)C2C[C@@H](OC(C)=O)[C@]3(C)C(CC[C@@]4(C)[C@H](c5ccoc5)OC(=O)C5OC543)[C@]21C (some centres undefined) ?
(A) label 0

(Q) Identify the outcome logged in this assay for the compound shown: COc1cccc(-c2cc(=O)c3ccc(OC)cc3o2)c1
(A) label 1

Attention now turns to another entry.
(Q) # lookup: test call for Nc1ccc(C(=O)O)c(O)c1 (tested in a mixture with another compound)
(A) label 0

----------
# PROTOCOL: chemical genetic growth profiling, strain panel (AID 1159580);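 further: tested at 20 µM; growth read once vehicle control cultures reached saturation at 30 °C; 1 = growth at the plate median or of vehicle wells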
# CONDITION CONTEXT: S. cerevisiae deletion strains, growth OD, locus YEL003W, strain gim4
Among all 5,500 compounds or so, about 2,000 (36%) were called active. About 18% were inconclusive and are not listed. Rule as the data show it: active = normalized growth mostly below about 0.91 (no sharp cut-off); inconclusive = no clear call, values can overlap the other calls; inactive = mostly above about 0.92. This is one part of the list.
The reply should be one of these categories: Yes = active, No = inactive

Reference set, count: 6
(Q) Please share the test call associated with Nc1nnc(-c2cccc(Cl)c2Cl)c(N)n1 .
(A) No

(Q) What outcome does the record of this test show for CC(C(=O)O)[C@H]1CCC2C3CC=C4C[C@@H](O)CC[C@]4(C)C3CC[C@@]21C (stereo not given in full) ?
(A) No

(Q) Recorded test call requested for CC(=O)CC(c1ccccc1)c1c(O)c2ccccc2oc1=O (stereo not given)
(A) No

(Q) Could you please tell me the result logged for C=C1C2CC[C@@]3(C)[C@H](c4ccoc4)OC(=O)C[C@]13O[C@H]1CC(=O)C(C)(C)[C@H](C(O)C(=O)OC)[C@@]21C (stereo not given in full) in this assay?
(A) No

(Q) Query: recorded result category for COC(=O)C1=C(C)NC(C)=C(C(=O)OCCN(C)Cc2ccccc2)C1c1cccc([N+](=O)[O-])c1 (stereo not given) in this test
(A) No

(Q) Recorded test outcome, item CC(=O)O[C@@H]1CC2C(C)(C)[C@H](O)C[C@H](O)[C@]2(C)C2CC[C@@]3(C)[C@H](c4ccoc4)OC(=O)[C@H]4O[C@]43[C@@]21C (stereo not given in full)
(A) No

***
(Q) How was COc1ccc(-c2cc(=O)c3c(O)c(OC)c(OC)c(OC)c3o2)cc1 classified in this test?
(A) No

----------
Listed here: items and their measured normalized growth.
# PROTOCOL: chemical genetic growth profiling, strain panel (AID 1159580);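 further: tested at 20 µM; growth read once vehicle control cultures reached saturation at 30 °C; 1 = growth at the plate median or of vehicle wells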
# CONDITION CONTEXT: S. cerevisiae deletion strains, growth OD, locus YDR363W, strain ESC2, stronger effect = lower value
Out of some 5,500 compounds screened, about 2,000 (36%) were called active. Not shown: some 18% with an inconclusive outcome. This is one part of the list.
Output spec: single numeric token, no unit.

These solved cases illustrate the format of a correct answer.
(Q) Return the recorded normalized growth value; entry: COC(=O)C1=C(C)NC(C)=C(C(=O)OC)C1c1ccccc1[N+](=O)[O-]
(A) 0.992

(Q) Assign normalized growth to the following record: CC(N)Cc1c[nH]c2ccc(OCc3cccs3)cc12 (stereo unspecified)
(A) 0.984

(Q) Answer with the recorded normalized growth of Nc1ccn([C@H]2CC[C@@H](CO)O2)c(=O)n1 only.
(A) 1.01

(Q) Query normalized growth for O=C(c1cc(O)c(O)c([N+](=O)[O-])c1)c1ccccc1F
(A) 0.98

(Q) Quote normalized growth reported for C=CCc1ccccc1OCC(O)CNC(C)C (stereo unspecified) please.
(A) 0.973

(Q) # return recorded normalized growth for input COc1ccc2c(c1OC)C(=O)O[C@@H]2[C@H]1c2c(cc3c(c2OC)OCO3)CCN1C
(A) 0.998

Further cases:
(Q) Specify measured normalized growth for O=c1c2ccccc2[se]n1-c1ccccc1 .
(A) 0.988

(Q) Specify measured normalized growth for O=c1c(-c2ccc(O)cc2)coc2cc(O)cc(O)c12 .
(A) 0.994

(Q) Tell us which normalized growth value is on record for NCCc1c[nH]c2ccc(O)cc12
(A) 1.01

(Q) Specify normalized growth for NCCCCNS(=O)(=O)c1cccc2c(Cl)cccc12 and stop.
(A) 1.01

(Q) Specify normalized growth for N=c1ccn2c(n1)OC1C(O)[C@@H](CO)O[C@H]12 (stereo partly specified) and stop.
(A) 0.986
